Collected IC50 for Platelet-derived growth factor receptor beta (Homo sapiens) across several studies; compounds listed below.

Answered cases to consult:
stdin: IC50 lookup needed for Cc1ncc(C(=O)N[C@H]2CCCC[C@@H]2O)cc1/C=C(\F)c1cnc(N)nc1 , thanks.
stdout: 110 nM

stdin: CCn1cc2ncc(N[C@@H](C)c3cc(NC(=O)c4ccc(C(F)(F)F)nc4)ccc3F)nc2n1 ?
stdout: < 300 nM

stdin: Similarly, O=C(Nc1ccc(C(F)(F)F)cc1)Nc1cccc(Oc2cc(-c3nnco3)ncn2)c1 ?
stdout: ≤ 10000 nM

stdin: And CCn1cc2ncc(N[C@@H](C)c3cc(NC(=O)Cc4cc(C)c(Cl)cn4)ccc3C)nc2n1 ?
stdout: < 300 nM

stdin: Param item: O=C(N[C@H]1CCCC[C@@H]1O)c1ccc(Cl)c(NCc2cncc(-c3ncccn3)c2)c1
stdout: 260 nM

Others:
stdin: Entry CCn1cc(C(=O)Nc2cccc([C@H](C)Nc3cnc4[nH]cc(C)c4n3)c2)cn1 : reported IC50 = ?
stdout: < 300 nM

stdin: And then CCn1cc2ncc(N[C@@H](C)c3cccc(NC(=O)Nc4cncc(C)c4)c3)nc2n1 , what is it?
stdout: 300 to 1000 nM

stdin: Next record, please: CCn1cc2ncc(N[C@@H](C)c3cccc(NC(=O)c4ccc(OC(C)C)nc4)c3)nc2n1
stdout: < 300 nM

stdin: Queued: C[C@H](Nc1cnc2cnn(C)c2n1)c1cccc(NC(=O)c2cnn(CCF)c2)c1
stdout: < 300 nM

stdin: Try Cc1ccc(C(=O)N[C@H]2CCCC[C@@H]2O)cc1NCc1cncc(-c2ncccn2)c1 next.
stdout: 120 nM

stdin: Try this compound next: Cn1cc(-c2cc(Oc3ccc(NC(=O)N4CCC5(CC(F)(F)C5)C4=O)nc3)ccn2)cn1
stdout: 2810 nM

stdin: Another compound to look at: Cc1ccc(C(=O)Nc2cccc([C@H](C)Nc3cnc4cnn(C)c4n3)c2)cc1F
stdout: < 300 nM

stdin: Request: Cc1[nH]c(/C=C2\C(=O)Nc3ccc(Br)cc32)c(C)c1C(=O)NCc1ccncc1
stdout: 90 nM

* * *

Literature pIC50 values, system: Platelet-derived growth factor receptor beta (Homo sapiens, UniProt P09619).
pIC50: −log10 of the molar value.

The following compounds have reported results that may help.
stdin: Missing value: pIC50, Platelet-derived growth factor receptor beta (Homo sapiens, UniProt P09619), entry CCn1cc2ncc(N[C@@H](C)c3cc(NC(=O)c4cnn(CCF)c4)ccc3F)nc2n1 . Fill in?
stdout: > 6.52

stdin: Param item: Cn1cc(-c2cc(Oc3cccc(NC(=O)c4ccc(OC(F)(F)F)cc4OC(F)(F)F)c3)ccn2)cn1
stdout: < 5.00

stdin: // same read-out, input: CCn1cc2ncc(N[C@@H](C)c3cc(NC(=O)Cc4ccc(C5CCC5)cn4)ccc3C)nc2n1
stdout: 6.00 to 6.52

Others:
stdin: # returns recorded pIC50 (system: Platelet-derived growth factor receptor beta (Homo sapiens, UniProt P09619)) for CCn1cc2ncc(N[C@@H](C)c3cccc(NC(=O)c4ccc(C#N)c(C)c4)c3)nc2n1
stdout: > 6.52

stdin: Likewise for CCn1cc2ncc(N[C@@H](C)c3cc(NC(=O)Cc4ccc5c(n4)CCCC5)ccc3C)nc2n1 ?
stdout: ≤ 6.00

stdin: What do we get for C[C@H](Nc1cnc2cnn(C)c2n1)c1cccc(NC(=O)N2CCCC(C(F)(F)F)C2)c1 (stereo partly shown) ?
stdout: > 6.52

stdin: Can you check CC(C)n1cc(C(=O)Nc2cccc([C@H](C)Nc3cnc4cn[nH]c4n3)c2)cn1 next?
stdout: > 6.52

stdin: Next compound up: CCn1cc2ncc(N[C@@H](C)c3cccc(NC(=O)c4ccc(CN5CC6(COC6)C5)c(C5CC5)c4)c3)nc2n1
stdout: > 6.52

stdin: Try this compound next: CCN1CCN(c2ccc(Nc3ncc(C)c(Nc4ccc5cn[nH]c5c4)n3)cc2OC)CC1
stdout: 8.77

stdin: Another: Cn1cc(-c2cc(Oc3cccc(NC(=O)c4cccc(Oc5ccccc5)c4)c3)ccn2)cn1
stdout: < 5.00

stdin: Input O=C(Nc1cccc(Oc2cc(-c3cnn(CCN4CCOCC4)c3)ncn2)c1)Nc1ccc(Cl)c(C(F)(F)F)c1
stdout: ≥ 5.00

stdin: Okay, and Cn1cc(-c2cc(Oc3cccc(NC(=O)c4cccc(-c5ccncc5)c4)c3)ccn2)cn1 ?
stdout: < 5.00

stdin: Can you handle Cc1cccc(C)c1-c1cc(C)c2nc(Nc3ccc(C(=O)NCCN4CCCC4)o3)nnc2c1 next?
stdout: 6.93

stdin: How about this compound: CCn1cc2ncc(N[C@@H](C)c3cccc(NC(=O)c4cnc5c(c4)CCCO5)c3)nc2n1
stdout: > 6.52

stdin: // next record Cc1ccc(C(=O)N[C@H]2CCCC[C@@H]2O)cc1N[C@@H](C)c1cncc(-c2ccncc2)c1
stdout: 6.60

stdin: Similarly, CCn1cc2ncc(N[C@@H](C)c3cc(NC(=O)c4cnc(NC5CC5)c(C)c4)ccc3C)nc2n1 ?
stdout: > 6.52

* * *

Collected from the literature: IC50 of various molecules toward Platelet-derived growth factor receptor beta (Homo sapiens).

stdin: Short answer please: IC50, Platelet-derived growth factor receptor beta (Homo sapiens), entry Cc1ccc(C(=O)N[C@H]2CCCC[C@@H]2O)cc1NC(=O)c1cnc(NC2CC2)s1
stdout: 5.9 nM

stdin: And for Cc1ccc(C(=O)N[C@H]2CCCC[C@@H]2O)cc1C#Cc1cncc(NCC2CC2)n1 ?
stdout: 10 nM

stdin: # repeat for CCN(CC)C(=O)c1cc2nccc(Oc3cccc(NC(=O)c4occc4C)c3)c2s1
stdout: 424 nM

stdin: // query: CCN(CC)CCCNC(=O)c1cc(C)c(/C=C2\C(=O)Nc3ccc(Br)cc32)[nH]1
stdout: > 100000 nM

stdin: Also, CCn1cc2ncc(N[C@@H](C)c3cccc(NC(=O)c4ccc(C(=O)N5CCN(C)CC5)c(Cl)c4)c3)nc2n1 please.
stdout: 300 to 1000 nM

stdin: Check C[C@H](Nc1cnc2[nH]cc(-c3cnn(C)c3)c2n1)c1cccc(NC(=O)[C@@H]2C[C@H]2C(F)(F)F)c1 too.
stdout: 300 to 1000 nM

stdin: Please do the same for CCn1cc2ncc(N[C@@H](C)c3cc(NC(=O)c4cnc(C#N)c(C)c4)ccc3F)nc2n1 as well.
stdout: < 300 nM

stdin: Queued: CCn1cc2ncc(N[C@@H](C)c3cccc(NC(=O)c4cnc5ccccc5c4)c3)nc2n1
stdout: < 300 nM

stdin: Then this molecule: CCn1cc2ncc(N[C@@H](C)c3cccc(NC(=O)c4ccc(C(F)(F)F)nc4)c3)nc2n1
stdout: 300 to 1000 nM

stdin: Entry CN(C)c1cccc(C(=O)Nc2cccc(Oc3ccnc(-c4cnn(C)c4)c3)c2)c1 please
stdout: > 10000 nM

Others:
stdin: Give IC50 (Platelet-derived growth factor receptor beta (Homo sapiens)) of the following molecule: Cc1c[nH]c2ncc(N[C@@H](C)c3cccc(NC(=O)c4ccc(OC(F)(F)F)nc4)c3)nc12
stdout: ≥ 1000 nM

stdin: What do we get for CCn1cc2ncc(N[C@@H](C)c3cc(NC(=O)Cc4cc(CN5CCN(C)CC5)c(C)cn4)ccc3C)nc2n1 ?
stdout: ≥ 1000 nM

* * *

Assembled from different publications: IC50 for Platelet-derived growth factor receptor beta (Homo sapiens, UniProt P09619).

stdin: API: value(readout= IC50, system= Platelet-derived growth factor receptor beta (Homo sapiens, UniProt P09619), query= CCn1cc2ncc(N[C@@H](C)c3cc(NC(=O)Cc4ccc(F)cc4)ccc3C)nc2n1 )
stdout: < 300 nM

stdin: Then CCn1cc2ncc(N[C@@H](C)c3cc(NC(=O)Cc4ccc(C)c(C)n4)ccc3C)nc2n1 ?
stdout: < 300 nM

stdin: Next: Cc1nc(C)c(-c2cc(Oc3ccc(NC(=O)Nc4ccc(Cl)c(C(F)(F)F)c4)cc3)ncn2)s1
stdout: ≤ 10000 nM

stdin: Field entry: Cc1ccc(C(=O)N[C@H]2CCCC[C@@H]2O)cc1NCc1cncc(-c2cccs2)c1
stdout: 23 nM

More entries:
stdin: Provide value of IC50 for this record tested with Platelet-derived growth factor receptor beta (Homo sapiens, UniProt P09619): Cc1ccc(C(=O)N[C@H]2CCCC[C@@H]2O)cc1NC(=O)c1cncc(Oc2ccccn2)c1
stdout: 61 nM

stdin: What do you get for Cc1ccc(C(=O)N[C@H]2CCCC[C@@H]2O)cc1/C=C(\F)c1cncc(NC2CCN(C)CC2)c1 ?
stdout: 1 nM

stdin: Next up: Cc1ccoc1C(=O)Nc1cccc(Oc2ccnc3cc(C(=O)NCCCO)sc23)c1
stdout: 146 nM

stdin: Please do the same for CCn1cc2ncc(N[C@@H](C)c3cccc(NC(=O)Cc4ccc(C(F)(F)F)cn4)c3)nc2n1 as well.
stdout: ≥ 1000 nM

stdin: How about this compound: CCN(CC)CCNC(=O)c1c(C)[nH]c(/C=C2\C(=O)Nc3cc(-c4cc(Cl)cc(Cl)c4)ccc32)c1C
stdout: 8320 nM

stdin: # iterate: CCn1cc2ncc(N[C@@H](C)c3cccc(NC(=O)c4ccc(C(F)F)s4)c3)nc2n1
stdout: < 300 nM

stdin: Now the compound CCn1cc2ncc(N[C@@H](C)c3cccc(NC(=O)c4ccc(CN5CCOCC5)c(Cl)c4)c3)nc2n1
stdout: < 300 nM

stdin: Let us now turn to Cn1cc(-c2cc(Oc3cccc(NC(=O)c4ccccc4-n4ccnc4)c3)ccn2)cn1
stdout: ≤ 10000 nM

stdin: Then CCn1cc2ncc(N[C@@H](C)c3cc(NC(=O)c4ccc(C(F)(F)F)nc4)c(F)cc3F)nc2n1 ?
stdout: 300 to 1000 nM

stdin: Next entry: CNc1ncc(C(=O)Nc2cccc([C@H](C)Nc3cnc4[nH]cc(-c5cnn(C)c5)c4n3)c2)cc1C
stdout: < 300 nM

stdin: Try this compound too: CCn1cc2ncc(N[C@@H](C)c3cc(NC(=O)c4ccc(N5CCCC5)nc4)ccc3F)nc2n1
stdout: < 300 nM
